Just for reference, ChEMBL document CHEMBL3352361 is where these values come from.

Kindly supply the reported Time values for the records listed here.
- Method: Antioxidant activity assessed as inhibition time period for protection against AAPH-induced DNA oxidation at 37 degC by TBARS method
- Type: physicochemical
Give bare numbers, in min.

Answered examples (4):
COc1cc2cc(C(=O)NCCc3ccc(O)cc3)c(=O)oc2cc1O | 7.43
COc1cc2cc(C(=O)NCCc3ccccc3)c(=O)oc2cc1O | 1.61
O=C(O)c1cc2ccc(O)cc2oc1=O | 0.82
O=C(NCCc1ccc(O)cc1)c1cc2ccccc2oc1=O | 1.28

Data point: "COc1cc2cc(C(=O)O)c(=O)oc2cc1O" ; Time = 2.92
